# Subject of test: Gamma-aminobutyric acid receptor subunit alpha-1/alpha-2/beta-2/gamma-2 (Homo sapiens, UniProt P14867+P18507+P47869+P47870)
# Sequence (P14867 whole entry): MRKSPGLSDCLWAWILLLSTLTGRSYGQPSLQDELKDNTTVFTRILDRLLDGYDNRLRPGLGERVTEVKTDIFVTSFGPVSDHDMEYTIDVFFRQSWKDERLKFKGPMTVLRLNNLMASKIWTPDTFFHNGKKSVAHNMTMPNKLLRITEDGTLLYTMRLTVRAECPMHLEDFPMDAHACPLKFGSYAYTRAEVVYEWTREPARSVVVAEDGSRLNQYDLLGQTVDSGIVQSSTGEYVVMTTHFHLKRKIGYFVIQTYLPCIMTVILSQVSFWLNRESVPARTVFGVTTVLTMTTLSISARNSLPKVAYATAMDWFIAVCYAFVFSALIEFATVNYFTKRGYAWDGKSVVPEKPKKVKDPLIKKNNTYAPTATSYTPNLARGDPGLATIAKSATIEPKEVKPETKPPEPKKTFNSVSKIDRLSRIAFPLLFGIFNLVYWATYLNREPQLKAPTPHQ
# Sequence (P47870 whole entry): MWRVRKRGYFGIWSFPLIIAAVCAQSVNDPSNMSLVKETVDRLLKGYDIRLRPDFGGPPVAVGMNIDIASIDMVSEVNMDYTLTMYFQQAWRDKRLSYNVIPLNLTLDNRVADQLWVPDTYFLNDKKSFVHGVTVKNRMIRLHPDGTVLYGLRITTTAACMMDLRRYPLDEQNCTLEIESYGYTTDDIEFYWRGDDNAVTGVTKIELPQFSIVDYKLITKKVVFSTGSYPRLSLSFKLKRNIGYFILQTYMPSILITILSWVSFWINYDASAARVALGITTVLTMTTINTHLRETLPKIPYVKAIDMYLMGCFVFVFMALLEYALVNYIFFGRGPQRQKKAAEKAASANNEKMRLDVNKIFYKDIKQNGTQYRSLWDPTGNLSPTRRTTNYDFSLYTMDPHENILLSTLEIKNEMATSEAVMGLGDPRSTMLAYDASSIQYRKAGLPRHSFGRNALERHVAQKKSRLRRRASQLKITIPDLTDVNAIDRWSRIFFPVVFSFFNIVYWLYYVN
# Sequence (P18507 whole entry): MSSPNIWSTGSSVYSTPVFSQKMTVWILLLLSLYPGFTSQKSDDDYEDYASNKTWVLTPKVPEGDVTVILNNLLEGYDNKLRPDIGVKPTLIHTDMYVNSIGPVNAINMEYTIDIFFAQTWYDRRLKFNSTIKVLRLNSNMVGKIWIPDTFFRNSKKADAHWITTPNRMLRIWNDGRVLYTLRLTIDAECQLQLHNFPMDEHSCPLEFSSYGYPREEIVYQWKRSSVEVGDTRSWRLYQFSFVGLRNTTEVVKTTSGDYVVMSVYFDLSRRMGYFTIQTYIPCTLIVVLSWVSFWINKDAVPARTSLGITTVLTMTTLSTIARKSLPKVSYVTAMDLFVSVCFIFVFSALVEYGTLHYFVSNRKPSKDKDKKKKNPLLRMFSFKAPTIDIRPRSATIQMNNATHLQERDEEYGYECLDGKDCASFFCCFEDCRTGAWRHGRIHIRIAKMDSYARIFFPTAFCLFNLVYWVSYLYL
# Sequence (P47869 whole entry): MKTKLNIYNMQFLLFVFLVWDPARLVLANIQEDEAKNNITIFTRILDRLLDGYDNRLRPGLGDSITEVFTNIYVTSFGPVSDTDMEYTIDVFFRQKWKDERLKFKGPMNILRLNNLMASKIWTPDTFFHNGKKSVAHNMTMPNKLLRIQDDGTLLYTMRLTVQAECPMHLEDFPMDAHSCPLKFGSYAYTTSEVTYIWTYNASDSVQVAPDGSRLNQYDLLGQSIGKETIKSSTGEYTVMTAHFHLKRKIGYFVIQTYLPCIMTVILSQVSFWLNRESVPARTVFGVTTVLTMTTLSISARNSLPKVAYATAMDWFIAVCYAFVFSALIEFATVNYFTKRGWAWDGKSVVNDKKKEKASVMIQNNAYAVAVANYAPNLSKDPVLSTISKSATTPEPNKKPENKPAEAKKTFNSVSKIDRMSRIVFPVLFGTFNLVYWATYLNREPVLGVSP
# Type: protein-complex assay
Measured AC50, listed per entry.

{"columns": ["Compound", "AC50"],
 "data": [
  ["Cc1c(-c2ccccc2)oc2c(C(=O)OCCN3CCCCC3)cccc2c1=O [FLAVOXATE]", "> 30 µM"],
  ["CCOC(=O)N[C@@H]1CC[C@@H]2[C@@H](C1)C[C@H]1C(=O)O[C@H](C)[C@H]1[C@H]2/C=C/c1ccc(-c2cccc(F)c2)cn1 [VORAPAXAR]", "> 30 µM"],
  ["COc1ccc(-c2cc(=O)c3c(O)cc(O[C@@H]4O[C@H](CO[C@@H]5O[C@@H](C)[C@H](O)[C@@H](O)[C@H]5O)[C@@H](O)[C@H](O)[C@H]4O)cc3o2)cc1O [DIOSMIN]", "> 30 µM"],
  ["CCOc1ccc(/C=C2\\NCCc3cc(OCC)c(OCC)cc32)cc1OCC [DROTAVERINE]", "> 30 µM"],
  ["C[C@@H]1C[C@H]2[C@@H]3C[C@H](F)C4=CC(=O)C=C[C@]4(C)[C@@]3(F)[C@@H](O)C[C@]2(C)[C@@]1(O)C(=O)COC(=O)C(C)(C)C [FLUMETHASONE PIVALATE]", "> 30 µM"],
  ["CS(=O)(=O)Nc1cc2occ(NC=O)c(=O)c2cc1Oc1ccccc1 [IGURATIMOD]", "> 30 µM"],
  ["C#C[C@]1(O)CC[C@H]2[C@@H]3CCC4=CC(=O)CC[C@@H]4[C@H]3CC[C@@]21CC [LEVONORGESTREL]", "> 30 µM"],
  ["CC(C)C(=O)Nc1ccc([N+](=O)[O-])c(C(F)(F)F)c1 [FLUTAMIDE]", "> 10 µM"],
  ["OCCOCCN1CCN(C2=Nc3ccccc3Sc3ccccc32)CC1 [QUETIAPINE]", "> 30 µM"],
  ["O=C(O)c1cccc(-c2noc(-c3ccccc3F)n2)c1", "> 30 µM"],
  ["CN(C)C(=O)Oc1ccc[n+](C)c1 [PYRIDOSTIGMINE]", "> 30 µM"],
  ["C[N+]1(C)[C@@H]2C[C@@H](OC(=O)[C@H](CO)c3ccccc3)C[C@H]1[C@@H]1O[C@@H]12 [METHSCOPOLAMINE]", "> 30 µM"]
]}

====

Measured AC50, listed per entry.
# Subject of test: 5-hydroxytryptamine receptor 2A (Homo sapiens)
# Sequence (P28223 whole entry): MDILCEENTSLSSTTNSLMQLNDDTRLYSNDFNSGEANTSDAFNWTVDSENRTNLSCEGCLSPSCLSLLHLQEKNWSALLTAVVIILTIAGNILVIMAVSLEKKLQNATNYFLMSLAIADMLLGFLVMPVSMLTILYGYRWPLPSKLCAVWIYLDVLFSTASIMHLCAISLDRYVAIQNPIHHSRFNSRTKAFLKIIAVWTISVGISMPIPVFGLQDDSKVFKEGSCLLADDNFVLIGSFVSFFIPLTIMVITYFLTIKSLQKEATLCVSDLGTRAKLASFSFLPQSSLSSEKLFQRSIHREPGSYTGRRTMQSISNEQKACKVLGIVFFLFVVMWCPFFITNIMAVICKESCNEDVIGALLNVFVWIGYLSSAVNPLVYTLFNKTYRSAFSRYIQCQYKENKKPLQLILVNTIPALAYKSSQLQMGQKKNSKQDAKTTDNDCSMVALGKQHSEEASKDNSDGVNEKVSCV
# Type: functional, cell-based

{"columns": ["Compound", "Subject of test", "AC50"],
 "data": [
  ["CC(N)Cc1ccccc1 (centres undefined)", "5-hydroxytryptamine receptor 2A (Homo sapiens)", "> 30 µM"],
  ["C[C@@H]1O[C@@H]1P(=O)(O)O", "5-hydroxytryptamine receptor 2A (Homo sapiens)", "> 10 µM"],
  ["N/N=c1/cc2c(n[nH]1)CCN(C(=O)c1ccccc1)C2", "5-hydroxytryptamine receptor 2A (Homo sapiens)", "> 30 µM"],
  ["CCC1(C2=CCCCCC2)C(=O)NC(=O)NC1=O", "5-hydroxytryptamine receptor 2A (Homo sapiens)", "> 10 µM"],
  ["OCc1cc([C@@H](O)CNCCCCCCOCCOCc2c(Cl)cccc2Cl)ccc1O", "5-hydroxytryptamine receptor 2A (Homo sapiens)", "> 30 µM"],
  ["COC(=O)N[C@H](C(=O)N[C@@H](Cc1ccccc1)[C@@H](O)CN(Cc1ccc(-c2ccccn2)cc1)NC(=O)[C@@H](NC(=O)OC)C(C)(C)C)C(C)(C)C", "5-hydroxytryptamine receptor 2A (Homo sapiens)", "> 10 µM"],
  ["CC(C(=O)O)c1ccc(C(=O)c2cccs2)cc1 (centres undefined)", "5-hydroxytryptamine receptor 2A (Homo sapiens)", "> 10 µM"],
  ["[H]/N=C(/N)c1ccc(NCc2nc3cc(C(=O)N(CCC(=O)O)c4ccccn4)ccc3n2C)cc1", "5-hydroxytryptamine receptor 2A (Homo sapiens)", "> 30 µM"],
  ["CCOc1cc(N)c([N+](=O)[O-])cc1C(=O)NC1CCN(CC2CC=CCC2)CC1 (centres undefined) [CINITAPRIDE]", "5-hydroxytryptamine receptor 2A (Homo sapiens)", "> 30 µM"]
]}

====

Target or system Glutamate receptor ionotropic, NMDA 1 (Rattus norvegicus, UniProt P35439): recorded AC50 listed per item. Further: assay procedure not described here.
Endpoint: AC50

{"columns": ["Compound", "Subject of test", "Endpoint", "Value reported"],
 "data": [
  ["COC(=O)N[C@H](C(=O)N1CCC[C@H]1c1nc(-c2ccc(-c3ccc(-c4c[nH]c([C@@H]5CCCN5C(=O)[C@@H](NC(=O)OC)C(C)C)n4)cc3)cc2)c[nH]1)C(C)C", "Glutamate receptor ionotropic, NMDA 1 (Rattus norvegicus, UniProt P35439)", "AC50", "> 30 µM"],
  ["C1COC(NC(C2CC2)C2CC2)=N1 [RILMENIDINE]", "Glutamate receptor ionotropic, NMDA 1 (Rattus norvegicus, UniProt P35439)", "AC50", "> 10 µM"],
  ["CC(Cc1ccccc1)NCCC(c1ccccc1)c1ccccc1 (stereo not drawn) [PRENYLAMINE]", "Glutamate receptor ionotropic, NMDA 1 (Rattus norvegicus, UniProt P35439)", "AC50", "> 10 µM"],
  ["NS(=O)(=O)c1cc(Cl)c(Cl)c(S(N)(=O)=O)c1 [DICHLORPHENAMIDE]", "Glutamate receptor ionotropic, NMDA 1 (Rattus norvegicus, UniProt P35439)", "AC50", "> 10 µM"],
  ["Cc1c(C(=O)Nc2ccc(N3C[C@@H](C)O[C@@H](C)C3)nc2)cccc1-c1ccc(OC(F)(F)F)cc1 [SONIDEGIB]", "Glutamate receptor ionotropic, NMDA 1 (Rattus norvegicus, UniProt P35439)", "AC50", "> 10 µM"],
  ["CC(C)NCC1CCc2cc(CO)c([N+](=O)[O-])cc2N1 (stereo not drawn) [OXAMNIQUINE]", "Glutamate receptor ionotropic, NMDA 1 (Rattus norvegicus, UniProt P35439)", "AC50", "> 10 µM"],
  ["CN[C@@H](C)[C@H](O)c1ccccc1 [EPHEDRINE]", "Glutamate receptor ionotropic, NMDA 1 (Rattus norvegicus, UniProt P35439)", "AC50", "> 10 µM"],
  ["N[C@@H](C(=O)N[C@@H]1C(=O)N2C(C(=O)O)=C(Cl)CS[C@H]12)c1ccccc1 [CEFACLOR ANHYDROUS]", "Glutamate receptor ionotropic, NMDA 1 (Rattus norvegicus, UniProt P35439)", "AC50", "> 30 µM"]
]}

====

Target or system Sodium-dependent serotonin transporter (Homo sapiens): recorded AC50 listed per item. Further: assay procedure not described here.
Endpoint: AC50

{"columns": ["Compound", "Endpoint", "Value reported"],
 "data": [
  ["C1=Cc2cccc(OCC3CNCCO3)c2C1 (centres undefined)", "AC50", "0.047 µM"],
  ["CC(=O)N(CC(O)CO)c1c(I)c(C(=O)NCC(O)CO)c(I)c(C(=O)NCC(O)CO)c1I (centres undefined) [IOHEXOL]", "AC50", "> 30 µM"],
  ["Cc1cc(-c2ccccc2)nnc1NCCN1CCOCC1", "AC50", "> 10 µM"],
  ["Cc1c(C(=O)Nc2ccc(N3C[C@@H](C)O[C@@H](C)C3)nc2)cccc1-c1ccc(OC(F)(F)F)cc1", "AC50", "> 10 µM"]
]}

====

# Subject of test: Thromboxane A2 receptor (Homo sapiens, UniProt P21731)
# Sequence (P21731 whole entry): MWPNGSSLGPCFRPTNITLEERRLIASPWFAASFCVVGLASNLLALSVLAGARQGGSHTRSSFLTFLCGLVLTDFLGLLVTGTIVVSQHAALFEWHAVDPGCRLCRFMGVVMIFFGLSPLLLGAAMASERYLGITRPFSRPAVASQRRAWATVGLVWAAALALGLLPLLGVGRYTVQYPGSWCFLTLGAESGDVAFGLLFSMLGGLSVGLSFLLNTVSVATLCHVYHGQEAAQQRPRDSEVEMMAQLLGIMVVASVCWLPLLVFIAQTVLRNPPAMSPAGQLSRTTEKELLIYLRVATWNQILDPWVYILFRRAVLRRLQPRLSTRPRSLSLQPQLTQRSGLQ
# Type: functional, cell-based

{"columns": ["Molecule", "AC50"],
 "data": [
  ["CO[C@@]12[C@H](COC(N)=O)C3=C(C(=O)C(C)=C(N)C3=O)N1C[C@@H]1N[C@@H]12 [MITOMYCIN]", "> 30 µM"],
  ["Nc1ccc(S(N)(=O)=O)cc1 [SULFANILAMIDE]", "> 30 µM"],
  ["N/N=c1/cc2c(n[nH]1)CCN(C(=O)c1ccccc1)C2 [ENDRALAZINE]", "> 30 µM"],
  ["CN1CCCC(CN2c3ccccc3Sc3ccccc32)C1 (configuration not stated) [MEPAZINE]", "> 10 µM"],
  ["O=C1c2c(O)c(=O)ccn2N([C@@H]2c3ccccc3SCc3c2ccc(F)c3F)[C@@H]2COCCN12 [BALOXAVIR]", "> 30 µM"],
  ["CCOc1ccc(/C=C2\\NCCc3cc(OCC)c(OCC)cc32)cc1OCC [DROTAVERINE]", "> 30 µM"],
  ["O=C(O)CCCN1CCC(O[C@@H](c2ccc(Cl)cc2)c2ccccn2)CC1 [BEPOTASTINE]", "> 30 µM"],
  ["O=C(NC[C@H]1CN(c2ccc(N3CCOCC3=O)cc2)C(=O)O1)c1ccc(Cl)s1 [RIVAROXABAN]", "> 3 µM"],
  ["Nc1nc(N)c2nc(-c3ccccc3)c(N)nc2n1", "> 30 µM"],
  ["C[C@@H]1O[C@@H](OC[C@H]2O[C@@H](Oc3c(-c4ccc(OCCO)c(OCCO)c4)oc4cc(OCCO)cc(O)c4c3=O)[C@H](O)[C@@H](O)[C@@H]2O)[C@H](O)[C@H](O)[C@H]1O [TROXERUTIN]", "> 30 µM"],
  ["NCc1ccccc1CC(=O)N[C@@H]1C(=O)N2C(C(=O)O)=C(CSc3nnnn3CC(=O)O)CS[C@H]12 [CEFORANIDE]", "> 30 µM"],
  ["CCCC[N+]1(C)[C@@H]2C[C@@H](OC(=O)[C@H](CO)c3ccccc3)C[C@H]1[C@@H]1O[C@@H]12 (some centres not stated) [BUTYLSCOPOLAMINE]", "> 30 µM"],
  ["Nc1ccc(/N=N/c2ccccc2)c(N)n1 [PHENAZOPYRIDINE]", "28.4 µM"],
  ["CC(O)CO (configuration not stated) [PROPYLENE GLYCOL]", "> 30 µM"],
  ["CN(CCOc1ccc(NS(C)(=O)=O)cc1)CCc1ccc(NS(C)(=O)=O)cc1 [DOFETILIDE]", "> 30 µM"],
  ["CC1(C)O[C@@H]2C[C@H]3[C@@H]4C[C@H](F)C5=CC(=O)CC[C@]5(C)[C@H]4[C@@H](O)C[C@]3(C)[C@]2(C(=O)CO)O1 [FLURANDRENOLIDE]", "> 30 µM"],
  ["Nc1nc(-n2cc(C(=O)O)c(=O)c3cc(F)c(N4CC(O)C4)c(Cl)c32)c(F)cc1F [DELAFLOXACIN]", "> 30 µM"]
]}
